Give calc. percentage of actives after storage for two months, 25° C. for every item shown.
# Method notes: Chemical and physical stability studies under ICH storage conditions (extraction, HPLC, appearance)
# Format: physicochemical
# Condition summary: in Composition A; 25° C./60% RH; two months
Structures can show the parent of a compound that is named as a salt.
Field: numeric (%). Do not append units.

calc. percentage of actives after storage for two months, 25° C. for CNC1(c2ccccc2Cl)CCCCC1=O (stereo not shown) [Ketamine Hydrochloride, Ketamine hydrochloride] is 100

Recorded calc. percentage of actives after storage for two months, 25° C. (compound COC(=O)c1ccc(O)cc1 ): 101

Consider CCCOC(=O)c1ccc(O)cc1 . Its measured calc. percentage of actives after storage for two months, 25° C. is 102

compound CN(C)CCC=C1c2ccccc2CCc2ccccc21 [Amitriptyline Hydrochloride, Amitriptyline hydrochloride] , calc. percentage of actives after storage for two months, 25° C. observed: 101
